Please provide measured MIC for the entries that follow.
system: E. coli GN5482; experiment: MIC; settings: Escherichia coli, GN5482, E. coli GN5482; Table 5

Request: Answer with reported MIC of CC(C)(ON=C(C(=O)NC1C(=O)N2C(C(=O)O)=C(CSc3c4c(nc5c(C(=O)O)cnn35)CCC4)CSC12)c1csc(N)n1)C(=O)NNC(=O)c1ccc(O)c(O)c1 (stereo not drawn)
Result: < 6 ng/mL

Request: Answer with reported MIC of CC(C)(ON=C(C(=O)NC1C(=O)N2C(C(=O)O)=C(CSc3c4c(nc5nc(C(=O)O)nn35)CCC4)CSC12)c1csc(N)n1)C(=O)NNC(=O)c1ccc(O)c(O)c1 (stereo not drawn)
Result: < 6 ng/mL

Request: Answer with reported MIC of Cc1nc2c(C(=O)O)cnn2c(SCC2=C(C(=O)O)N3C(=O)C(NC(=O)C(=NOC(C)(C)C(=O)NNC(=O)c4ccc(O)c(O)c4)c4csc(N)n4)C3SC2)c1C (stereo not drawn)
Result: < 6 ng/mL

Request: Answer with reported MIC of Cc1nc2nc(C(=O)O)nn2c(SCC2=C(C(=O)O)N3C(=O)C(NC(=O)C(=NOC(C)(C)C(=O)NNC(=O)c4ccc(O)c(O)c4)c4csc(N)n4)C3SC2)c1C (stereo not drawn)
Result: < 6 ng/mL

Request: Answer with reported MIC of Cc1cc(SCC2=C(C(=O)O)N3C(=O)C(NC(=O)C(=NOC(C)(C)C(=O)NNC(=O)c4ccc(O)c(O)c4)c4csc(N)n4)C3SC2)n2ncnc2n1 (stereo not drawn)
Result: 12 ng/mL

Request: Answer with reported MIC of CC(C)(ON=C(C(=O)NC1C(=O)N2C(C(=O)O)=C(CSc3c4c(nc5ncnn35)CCC4)CSC12)c1csc(N)n1)C(=O)NNC(=O)c1ccc(O)c(O)c1 (stereo not drawn)
Result: 12 ng/mL
